Target: DRD3 (Homo sapiens)
Sequence (P35462 whole entry, species assumed): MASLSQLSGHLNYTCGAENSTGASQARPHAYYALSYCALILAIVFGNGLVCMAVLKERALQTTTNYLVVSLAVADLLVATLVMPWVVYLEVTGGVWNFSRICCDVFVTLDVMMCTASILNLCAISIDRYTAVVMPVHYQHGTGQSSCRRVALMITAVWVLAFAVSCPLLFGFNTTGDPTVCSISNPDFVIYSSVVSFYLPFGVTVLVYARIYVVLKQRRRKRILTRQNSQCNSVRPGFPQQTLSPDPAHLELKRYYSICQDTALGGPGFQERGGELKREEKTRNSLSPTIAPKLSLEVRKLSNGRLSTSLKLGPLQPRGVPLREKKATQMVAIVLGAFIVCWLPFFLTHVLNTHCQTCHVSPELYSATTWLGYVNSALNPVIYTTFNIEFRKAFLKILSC
Conditions: read-out: dopamine D3 receptor Kd; listed as major metabolite
assay_endpoint: pKd
// pKd is dimensionless: -log10 of concentration (M)

-- ask Look up pKd for this compound: C[CH2][Hg]
-- reply 6.68

* * *

Assay: Pharmacokinetics in rats after i.v. and oral administration
Conditions: rat, blood, iv, 1 mg/kg
assay_endpoint: half-life (h)
# unit: h | format: bare number

-- ask Look up half-life for this compound: CCCOC(=O)c1cc(O)c(O)c(O)c1 [Propyl gallate]
-- reply 4.9

* * *

Target: TBXA2R (Homo sapiens, UniProt P21731)
Sequence (P21731 whole entry, species assumed): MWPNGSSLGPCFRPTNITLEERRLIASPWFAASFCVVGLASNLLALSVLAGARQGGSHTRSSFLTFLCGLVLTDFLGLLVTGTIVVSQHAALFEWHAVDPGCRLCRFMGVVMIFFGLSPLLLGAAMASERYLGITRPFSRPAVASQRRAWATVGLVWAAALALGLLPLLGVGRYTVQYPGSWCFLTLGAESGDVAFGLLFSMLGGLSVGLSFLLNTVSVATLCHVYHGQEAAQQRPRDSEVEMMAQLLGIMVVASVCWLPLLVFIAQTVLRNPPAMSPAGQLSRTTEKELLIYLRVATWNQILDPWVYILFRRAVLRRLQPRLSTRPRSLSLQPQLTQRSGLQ
assay_endpoint: IC50 (µM)
# unit: µM | format: bare number

-- ask Look up IC50 for this molecule: CCCCOC(=O)c1ccc(O)cc1
-- reply 19

* * *

Target: UniProt P09917
Sequence (P09917 1-674): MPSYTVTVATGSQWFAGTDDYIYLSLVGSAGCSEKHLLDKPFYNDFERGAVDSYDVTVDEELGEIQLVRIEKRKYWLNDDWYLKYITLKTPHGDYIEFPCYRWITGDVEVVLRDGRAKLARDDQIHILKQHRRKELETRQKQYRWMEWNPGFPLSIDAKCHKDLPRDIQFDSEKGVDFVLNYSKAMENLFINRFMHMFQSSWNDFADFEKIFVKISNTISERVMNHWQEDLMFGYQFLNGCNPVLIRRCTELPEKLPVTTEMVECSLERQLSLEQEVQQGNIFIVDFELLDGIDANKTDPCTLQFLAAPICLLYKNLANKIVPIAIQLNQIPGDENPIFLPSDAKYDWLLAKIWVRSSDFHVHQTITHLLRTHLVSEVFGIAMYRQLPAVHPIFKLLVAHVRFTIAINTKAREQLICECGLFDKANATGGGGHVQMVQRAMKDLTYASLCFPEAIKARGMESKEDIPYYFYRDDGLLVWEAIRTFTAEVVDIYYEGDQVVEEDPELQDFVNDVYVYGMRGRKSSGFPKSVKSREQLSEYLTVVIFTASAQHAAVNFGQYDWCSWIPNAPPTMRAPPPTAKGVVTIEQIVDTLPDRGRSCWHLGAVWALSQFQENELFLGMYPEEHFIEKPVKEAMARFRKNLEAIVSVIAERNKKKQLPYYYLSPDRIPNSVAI
assay_endpoint: IC50 (nM)
# unit: nM | format: bare number

-- ask Look up IC50 for this molecule: CCCOC(=O)c1cc(O)c(O)c(O)c1 [Propyl gallate]
-- reply 430

* * *

Target: DRD3 (Homo sapiens)
assay_endpoint: IC50 (µM)
# unit: µM | format: bare number

-- ask Give IC50 (DRD3 (Homo sapiens)) of the following compound: C[CH2][Hg][S]c1ccccc1C(=O)[O-].[Na+]
-- reply 0.32

* * *

Target: COMT (Homo sapiens)
Sequence (P21964 1-271): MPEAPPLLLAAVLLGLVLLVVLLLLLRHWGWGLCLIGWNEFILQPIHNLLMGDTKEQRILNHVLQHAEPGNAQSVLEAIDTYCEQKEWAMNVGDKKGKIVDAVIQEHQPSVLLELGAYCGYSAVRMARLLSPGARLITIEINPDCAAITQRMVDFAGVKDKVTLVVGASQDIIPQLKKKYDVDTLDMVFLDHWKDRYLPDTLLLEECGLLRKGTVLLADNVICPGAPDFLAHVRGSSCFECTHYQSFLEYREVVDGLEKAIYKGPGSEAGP
Assay: in vitro inhibition of COMT
assay_endpoint: IC50 (nM)
# unit: nM | format: bare number

-- ask Give IC50 (COMT (Homo sapiens)) of the following compound: CCCOC(=O)c1cc(O)c(O)c(O)c1 [Propyl gallate]
-- reply 15

Attribution: paper PMC7960226
